Biological target: T1, human IL-17A (construct not specified) (human, UniProt Q16552 24-155, limits assumed)
T1 construct: also called huIL-17A
T1 sequence: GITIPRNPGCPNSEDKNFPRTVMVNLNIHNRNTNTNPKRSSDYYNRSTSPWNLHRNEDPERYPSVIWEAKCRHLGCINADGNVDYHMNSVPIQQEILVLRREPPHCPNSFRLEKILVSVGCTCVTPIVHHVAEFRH
Test: ELISA, coated huIL-17A, crude Fab extract
Documented Classic ELISA (normalized to XAB1 Fab) across a set of binders
Entry rule: numbers only, all in fold.

Binder	Observed Result
MB432 (Fab, V domains shown, Fab variant of XAB1) VH: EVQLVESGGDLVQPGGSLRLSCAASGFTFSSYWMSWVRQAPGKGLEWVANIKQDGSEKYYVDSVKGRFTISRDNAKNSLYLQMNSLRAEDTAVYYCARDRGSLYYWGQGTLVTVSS VL: AIQLTQSPSSLSASVGDRVTITCRPSQGILFALAWYQQKPGKAPKLLIYDASSLENGVPSRFSGSGSGTDFTLTISSLQPEDFATYYCQQFNSYPLTFGGGTKVEIK	2.3

# evaluate next
Request: Which Classic ELISA (normalized to XAB1 Fab) value is on record for MB440 (Fab, V domains shown, Fab variant of XAB1) VH: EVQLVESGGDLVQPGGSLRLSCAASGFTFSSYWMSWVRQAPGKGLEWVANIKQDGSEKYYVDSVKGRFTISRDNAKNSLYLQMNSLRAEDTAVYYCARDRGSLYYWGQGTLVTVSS VL: AIQLTQSPSSLSASVGDRVTITCRPSQGILWQLAWYQQKPGKAPKLLIYDASSLENGVPSRFSGSGSGTDFTLTISSLQPEDFATYYCQQFNSYPLTFGGGTKVEIK ?
Result: 2.8
